Field: pIC50. Provide a value for each of the compounds that follow.
study-system: human MMP14 (Homo sapiens (Human))
experimental-conditions: read-out: hMMP-14 potency IC50
pIC50: −log10 of the molar value.

Fill in: pIC50 of C[C@H]1CN(C(=O)CCC2(C3CC3)NC(=O)NC2=O)CCN1c1cccc(Br)c1 (stereo partly drawn) is ___
< 5.40

Fill in: pIC50 of Cc1cc(C2(CCC(=O)N3CCN(c4cc(F)cc(F)c4)[C@@H](C)C3)NC(=O)NC2=O)ccn1 (stereo partly drawn) is ___
< 4.70

Fill in: pIC50 of CC(CC1(CCS(C)(=O)=O)NC(=O)NC1=O)C(=O)N1CCN(c2cc(Cl)cc(Cl)c2)CC1 (stereo not drawn) is ___
5.88
